# procedure_summary: in vitro
# condition_description: human, hela cells, % viability
assay_readout: viability at 28.5 h, 10 µM (%)
Just the number in %, nothing appended.

| compound | assay_readout | number |
| --- | --- | --- |
| O=C(OCc1ccccc1F)c1cccc(-c2nnc(-c3ccccc3)o2)c1 [CBK267798] | viability at 28.5 h, 10 µM | 84.6 |
| CC(O)c1cc2c(cc1NC(=O)c1cnn3c1NC(c1ccco1)CC3C(F)(F)F)OCO2 (stereo not shown) [CBK268850] | viability at 28.5 h, 10 µM | 83.3 |

Query viability at 28.5 h, 10 µM for Cc1ccc(SC(C)C(=O)Nc2nc[nH]n2)cc1 (stereo not shown) [CBK268638]
107

Query viability at 28.5 h, 10 µM for Cc1n[nH]c(C)c1-c1ccc2c(cnn2C)c1 [CBK307314]
70.3

Query viability at 28.5 h, 10 µM for Cc1noc(C)c1Cc1ccc(C(=O)Nc2nc3ccccc3n2C)o1 [CBK299839]
85.6

Query viability at 28.5 h, 10 µM for Cc1cc(NC(=O)C2CCN(C(=O)CNc3ccccc3)CC2)no1 [CBK304297C]
85.9

Query viability at 28.5 h, 10 µM for CC(NC(=O)/C(=C\c1ccccc1)NC(=O)c1ccc(Br)o1)C(=O)O (stereo not shown) [CBK264934]
107

Query viability at 28.5 h, 10 µM for Cc1cc(C)n(-c2nc3cc(Cl)ccc3nc2NCc2ccc3c(c2)OCO3)n1 [CBK268482]
106

Query viability at 28.5 h, 10 µM for CCOC(=O)c1c(-c2ccc(-c3ccccc3)cc2)csc1NC(=O)c1ccccc1C(=O)O [CBK296096]
106

Query viability at 28.5 h, 10 µM for CCOC(=O)c1c(NC(=O)NCc2ccncc2)sc2c1CCC2 [CBK307591]
81.6

Query viability at 28.5 h, 10 µM for CN(C)S(=O)(=O)c1ccc(NC(=O)CCC(=O)O)cc1 [CBK267156]
91.6

====

The entries below come with measured viability at 28.5 h, 10 µM values attached.
# procedure_summary: in vitro
# condition_description: human, hela cells, % viability
Just the number in %, nothing appended.

| compound | number |
| --- | --- |
| NC1CCCN(C(=O)c2ccc(Oc3cccc(Br)c3)nc2)C1 (centres unmarked) [CBK304747] | 92.6 |
| Cc1ccc(S(=O)(=O)Cc2ccc(C(=O)NCc3ccco3)cc2)cc1 [CBK268630] | 105 |
| Cc1ncsc1C(=O)N1CCC[C@H](C(=O)c2cccs2)C1 [CBK284260] | 80.2 |
| Cc1cc(C)n(C(C)C(=O)N(C)CCn2ccnc2C)n1 (centres unmarked) [CBK281759] | 88.1 |

Here's the next entry for you.
Query viability at 28.5 h, 10 µM for Cc1ccc(CCC(=O)N2CCNCC2C)c(C)c1 (centres unmarked) [CBK304481]
90

====

The entries below come with measured viability at 28.5 h, 10 µM values attached.
# procedure_summary: in vitro
# condition_description: human, hela cells, % viability, bulk resorufin, single well

Observe how each entry below is paired with its result.
| compound | viability at 28.5 h, 10 µM |
| --- | --- |
| CCOC(=O)C1(c2ccccc2)CCN(C(=O)CCN2CCN(C)CC2)CC1 | 86.2% |
| COc1ccccc1CCNCc1ccccc1Br | 87% |
| O=C(Cn1cc(C(=O)c2ccco2)c2ccccc21)NCCc1c[nH]c2ccccc12 | 97.9% |
| CCOc1cccc(N2C(=O)NC(=O)/C(=C/NCCc3c[nH]c4ccccc34)C2=O)c1 | 106% |
| COc1cc(/C=C2/C(=O)NC(=O)N(c3ccccc3)C2=O)cc(Cl)c1O | 93.3% |

Query viability at 28.5 h, 10 µM for COc1ccc(N2C(=O)/C(=C/c3cc(C)n(-c4ccc(N5CCOCC5)cc4)c3C)C(=O)NC2=S)cc1
89.7%

Query viability at 28.5 h, 10 µM for Cc1ccc(Cn2nc(C(=O)Nc3cc(C)on3)c3ccccc32)cc1
98.7%

Query viability at 28.5 h, 10 µM for CC(=O)N1CCC2(CC1)OCc1cc(-c3ccc(CCC(=O)O)cc3)ccc1O2
90.3%
